# Test system: Lichtheimia corymbifera 272
# test description: Antifungal microdilution broth, LC
# Assay type: cell-based
# assay conditions: Lichtheimia corymbifera, 272, 48 h, read-out: MIC LC
Consider the following compounds; for each one, report its MIC.

Solved entries:
- structure notation: "Cc1ccc(C(=O)Nc2cnc(Cl)cn2)cc1"
  measurement target: "Lichtheimia corymbifera 272"
  MIC: "> 125 µM"
- structure notation: "O=C(Nc1cnc(Cl)cn1)c1ccccc1O"
  measurement target: "Lichtheimia corymbifera 272"
  MIC: "125 µM"

Which measured MIC value corresponds to "COc1cccc(C(=O)Nc2cnccn2)c1" ?
> 500 µM

###

value kind: melting point

Solved entries:
- structure notation: "O=C(Nc1cnccn1)c1ccccc1O"
  melting point: "209.9 to 211.5 °C"
- structure notation: "COc1ccc(C(=O)Nc2cnccn2)cc1"
  melting point: "156 to 156.6 °C"
- structure notation: "CC(=O)Oc1ccc(C(=O)Nc2cnc(Cl)cn2)cc1"
  melting point: "170.9 to 171.8 °C"
- structure notation: "COc1ccccc1C(=O)Nc1cnc(Cl)cn1"
  melting point: "141.2 to 142 °C"

Here are 2 molecules. What values of melting point were reported for them?
1. COc1ccc(C(=O)Nc2cnc(Cl)cn2)cc1
2. O=C(Nc1cnc(Cl)cn1)c1cccc(O)c1

177.8 to 179 °C
190.1 to 190.8 °C

Here are 3 molecules. What values of melting point were reported for them?
1. O=C(Nc1cnccn1)c1ccccc1
2. CC(=O)Oc1cccc(C(=O)Nc2cnccn2)c1
3. O=C(Nc1cnccn1)c1cccc(O)c1

171.2 to 172 °C
168.4 to 169.5 °C
192.2 to 193.7 °C
